- study target: Thyrotropin receptor (Homo sapiens) (UniProt P16473)
- Sequence (P16473 whole entry, looked up): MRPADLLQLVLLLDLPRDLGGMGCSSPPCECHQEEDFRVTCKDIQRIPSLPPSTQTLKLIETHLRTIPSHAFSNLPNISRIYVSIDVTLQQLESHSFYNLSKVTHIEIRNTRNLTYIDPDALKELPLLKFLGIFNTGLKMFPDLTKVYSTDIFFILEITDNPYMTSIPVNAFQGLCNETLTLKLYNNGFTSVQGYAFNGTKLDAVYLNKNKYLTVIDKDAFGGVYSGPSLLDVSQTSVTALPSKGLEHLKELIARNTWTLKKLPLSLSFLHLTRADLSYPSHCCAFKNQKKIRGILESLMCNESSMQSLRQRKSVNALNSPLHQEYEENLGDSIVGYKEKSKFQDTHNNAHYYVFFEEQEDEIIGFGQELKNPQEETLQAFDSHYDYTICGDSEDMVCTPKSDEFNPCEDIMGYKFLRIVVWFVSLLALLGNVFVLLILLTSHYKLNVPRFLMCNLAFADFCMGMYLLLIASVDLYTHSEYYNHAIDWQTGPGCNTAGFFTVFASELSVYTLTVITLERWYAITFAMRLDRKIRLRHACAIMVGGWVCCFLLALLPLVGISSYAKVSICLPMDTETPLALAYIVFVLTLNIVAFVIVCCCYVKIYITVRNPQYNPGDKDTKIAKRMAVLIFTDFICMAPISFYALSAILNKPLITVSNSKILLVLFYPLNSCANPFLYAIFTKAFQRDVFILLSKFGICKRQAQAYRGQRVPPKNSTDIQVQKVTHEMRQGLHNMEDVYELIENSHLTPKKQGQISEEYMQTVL
- protocol summary: Concentration-response assay for inverse agonists of the thyroid stimulating hormone receptor: ELISA activity detection
- setup conditions: HEK293-TSHR basal cAMP, ELISA chemiluminescence, 1 h
Calls of active or inactive are those of the source. No rule for the calls is given here.
Give one outcome, nothing more. List: active, inactive

Consider the following illustrative entries.
compound: COc1ccc(C2Nc3ccccc3C(=O)N2Cc2ccccn2)cc1COc1c(C)cccc1C (centres undefined)
category: inactive
--
compound: COc1ccc(C2Nc3ccccc3C(=O)N2Cc2ccccc2)cc1COc1c(C)cccc1C (centres undefined)
category: inactive

Ask | Lab log entry: Cc1cccc(C)c1OCc1cccc(C2Nc3ccccc3C(=O)N2Cc2ccco2)c1 (centres undefined) — outcome as called in the assay?
Reply | active

Ask | Lab log entry: COc1ccc(C2Nc3ccccc3C(=O)N2Cc2ccco2)cc1COc1c(C)cc(NC(C)=O)cc1C (centres undefined) — outcome as called in the assay?
Reply | active
